assay: Biodistribution of 67Ga-radiolabeled peptides; set-up: species or system mouse; conditions: female, CD1, mouse, in vivo, iv, 100 uCi, total radioactivity, Tissue distribution, Kidney
Residues, ends and D or L forms follow the SMILES beside them. *: point of attachment. NODAGA = O=C(O)CN1CCN(CC(=O)O)CCN(C(CCC(=O)*)C(=O)O)CC1
So I've got a bunch of compounds here, and I need their tissue uptake at 1 h values.

Entry CC(C)C[C@H](NC(=O)[C@H](Cc1c[nH]c2ccccc12)NC(=O)[C@H](Cc1ccccc1)NC(=O)[C@H](CCC(N)=O)NC(=O)[C@H](C)NC(=O)[C@H](CO)NC(=O)[C@H](CC(=O)O)NC(=O)[C@@H]1CCCN1C(=O)[C@H](CCCNC(=N)N)NC(=O)[C@H](CC(N)=O)NC(=O)CCC(C(=O)O)N1CCN(CC(=O)O)CCN(CC(=O)O)CC1)C(=O)N[C@@H](Cc1c[nH]cn1)C(=O)N[C@@H](Cc1c[nH]cn1)C(N)=O (stereo partly drawn) [67Ga-BBBpS_9, metal not drawn] ({NODAGA}-NRPDSAQFWLHH-NH2) has what tissue uptake at 1 h?
3.1 %ID/g

Report tissue uptake at 1 h for CC[C@H](C)[C@H](NC(=O)[C@H](C)NC(=O)CNC(=O)[C@H](CCCCN)NC(=O)[C@H](Cc1ccc(O)cc1)NC(=O)[C@H](CCCCN)NC(=O)CCC(C(=O)O)N1CCN(CC(=O)O)CCN(CC(=O)O)CC1)C(=O)N[C@H](C(=O)NCC(=O)N[C@@H](CC(N)=O)C(=O)N[C@H](C(=O)N[C@@H](CCCCN)C(N)=O)[C@@H](C)CC)[C@@H](C)CC (stereo partly drawn) [67Ga-BBBpS_1, metal not drawn] ({NODAGA}-KYKGAIIGNIK-NH2) please.
2.4 %ID/g

Look up tissue uptake at 1 h: CC[C@H](C)[C@H](NC(=O)[C@H](C)NC(=O)CNC(=O)[C@H](CO)NC(=O)[C@H](CCCNC(=N)N)NC(=O)[C@H](Cc1ccc(O)cc1)NC(=O)[C@H](CCCCN)NC(=O)CCC(C(=O)O)N1CCN(CC(=O)O)CCN(CC(=O)O)CC1)C(=O)N[C@H](C(=O)N[C@H](C(=O)NCC(=O)N[C@@H](Cc1ccc(O)cc1)C(N)=O)[C@@H](C)CC)[C@@H](C)O (stereo partly drawn) [67Ga-BBBpS_2, metal not drawn] ({NODAGA}-KYRSGAITIGY-NH2)
1.4 %ID/g

----------
test: Cytotoxicity, CellTiter-Blue cell viability assay; type: cell-based; settings: human; read-out: Cytotoxicity IC50 HBEC-5i
No end group written: not given here.
I'd be grateful if you could share measured IC50 at 24 h for these entries.

# get_value(readout='IC50 at 24 h', item= EEGRLYMRYYSPTTRRYG-NH2 [BBBpS_3] )
> 100 µM

Which value of IC50 at 24 h has been reported for KKKKQPPKPKKPKTQEKKKKQPPKPKR-NH2 [non-BBBpS_1] in the records?
> 100 µM

----------
assay: Biodistribution of 67Ga-radiolabeled peptides; design: species or system mouse; details: female, CD1, mouse, in vivo, iv, 100 uCi, total radioactivity, Tissue distribution, Muscle
Residues, ends and D or L forms follow the SMILES beside them. *: point of attachment. NODAGA = O=C(O)CN1CCN(CC(=O)O)CCN(C(CCC(=O)*)C(=O)O)CC1
parameter: tissue uptake at 2 min
State the value with its unit after it.

Quick one: tissue uptake at 2 min for CC(C)C[C@H](NC(=O)[C@H](Cc1c[nH]c2ccccc12)NC(=O)[C@H](Cc1ccccc1)NC(=O)[C@H](CCC(N)=O)NC(=O)[C@H](C)NC(=O)[C@H](CO)NC(=O)[C@H](CC(=O)O)NC(=O)[C@@H]1CCCN1C(=O)[C@H](CCCNC(=N)N)NC(=O)[C@H](CC(N)=O)NC(=O)CCC(C(=O)O)N1CCN(CC(=O)O)CCN(CC(=O)O)CC1)C(=O)N[C@@H](Cc1c[nH]cn1)C(=O)N[C@@H](Cc1c[nH]cn1)C(N)=O (stereo partly shown) [67Ga-BBBpS_9, metal not drawn] ({NODAGA}-NRPDSAQFWLHH-NH2) ?
2.6 %ID/g

State the recorded tissue uptake at 2 min for this entry: CC[C@H](C)[C@H](NC(=O)[C@H](C)NC(=O)CNC(=O)[C@H](CCCCN)NC(=O)[C@H](Cc1ccc(O)cc1)NC(=O)[C@H](CCCCN)NC(=O)CCC(C(=O)O)N1CCN(CC(=O)O)CCN(CC(=O)O)CC1)C(=O)N[C@H](C(=O)NCC(=O)N[C@@H](CC(N)=O)C(=O)N[C@H](C(=O)N[C@@H](CCCCN)C(N)=O)[C@@H](C)CC)[C@@H](C)CC (stereo partly shown) [67Ga-BBBpS_1, metal not drawn] ({NODAGA}-KYKGAIIGNIK-NH2)
2.4 %ID/g

I am curious: what tissue uptake at 2 min value has been reported for CC[C@H](C)[C@H](NC(=O)[C@H](Cc1c[nH]cn1)NC(=O)CCC(C(=O)O)N1CCN(CC(=O)O)CCN(CC(=O)O)CC1)C(=O)N[C@@H](CCC(N)=O)C(=O)N[C@@H](CC(C)C)C(=O)N[C@@H](CO)C(=O)N1CCC[C@H]1C(=O)N[C@@H](Cc1ccccc1)C(=O)N[C@@H](CO)C(=O)N[C@@H](CCC(N)=O)C(=O)N[C@@H](CO)C(=O)N[C@@H](Cc1c[nH]c2ccccc12)C(=O)N[C@@H](CCCNC(=N)N)C(N)=O (stereo partly shown) [67Ga-BBBpS_5, metal not drawn] ({NODAGA}-HIQLSPFSQSWR-NH2) ?
3.1 %ID/g

Name the reported tissue uptake at 2 min value associated with the compound CC[C@H](C)[C@H](NC(=O)[C@H](C)NC(=O)CNC(=O)[C@H](CO)NC(=O)[C@H](CCCNC(=N)N)NC(=O)[C@H](Cc1ccc(O)cc1)NC(=O)[C@H](CCCCN)NC(=O)CCC(C(=O)O)N1CCN(CC(=O)O)CCN(CC(=O)O)CC1)C(=O)N[C@H](C(=O)N[C@H](C(=O)NCC(=O)N[C@@H](Cc1ccc(O)cc1)C(N)=O)[C@@H](C)CC)[C@@H](C)O (stereo partly shown) [67Ga-BBBpS_2, metal not drawn] ({NODAGA}-KYRSGAITIGY-NH2)
2 %ID/g

----------
Field: IC50 at 24 h. Provide a value for each of the substances that follow.
experiment: Cytotoxicity, CellTiter-Blue cell viability assay; type: cell-based; details: human; CellTiter-Blue, peptides 0.05–100.0 µM, 24 h; triplicates, three independent cultures
No end group written: not given here.

Could you share which IC50 at 24 h value was measured for KKKKQPPKPKKPKTQEKKKKQPPKPKR-NH2 [non-BBBpS_1] ?
> 100 µM

Field request: IC50 at 24 h | item: EEGRLYMRYYSPTTRRYG-NH2 [BBBpS_3]
> 100 µM

----------
assay: Biodistribution of 67Ga-radiolabeled peptides; design: species or system mouse; settings: female, CD1, mouse, in vivo, iv, 100 uCi, total radioactivity, Tissue distribution, Spleen
Residues, ends and D or L forms follow the SMILES beside them. *: point of attachment. NODAGA = O=C(O)CN1CCN(CC(=O)O)CCN(C(CCC(=O)*)C(=O)O)CC1
Can you tell me tissue uptake at 2 min for the items I'm about to list?
Unit %ID/g implied. Number only.

Reported tissue uptake at 2 min, compound CC(C)C[C@H](NC(=O)[C@H](Cc1c[nH]c2ccccc12)NC(=O)[C@H](Cc1ccccc1)NC(=O)[C@H](CCC(N)=O)NC(=O)[C@H](C)NC(=O)[C@H](CO)NC(=O)[C@H](CC(=O)O)NC(=O)[C@@H]1CCCN1C(=O)[C@H](CCCNC(=N)N)NC(=O)[C@H](CC(N)=O)NC(=O)CCC(C(=O)O)N1CCN(CC(=O)O)CCN(CC(=O)O)CC1)C(=O)N[C@@H](Cc1c[nH]cn1)C(=O)N[C@@H](Cc1c[nH]cn1)C(N)=O (stereo partly shown) [67Ga-BBBpS_9, metal not drawn] ({NODAGA}-NRPDSAQFWLHH-NH2) : ____
2.6

Look up tissue uptake at 2 min: CC[C@H](C)[C@H](NC(=O)[C@H](C)NC(=O)CNC(=O)[C@H](CO)NC(=O)[C@H](CCCNC(=N)N)NC(=O)[C@H](Cc1ccc(O)cc1)NC(=O)[C@H](CCCCN)NC(=O)CCC(C(=O)O)N1CCN(CC(=O)O)CCN(CC(=O)O)CC1)C(=O)N[C@H](C(=O)N[C@H](C(=O)NCC(=O)N[C@@H](Cc1ccc(O)cc1)C(N)=O)[C@@H](C)CC)[C@@H](C)O (stereo partly shown) [67Ga-BBBpS_2, metal not drawn] ({NODAGA}-KYRSGAITIGY-NH2)
1.9

Item CC[C@H](C)[C@H](NC(=O)[C@H](Cc1c[nH]cn1)NC(=O)CCC(C(=O)O)N1CCN(CC(=O)O)CCN(CC(=O)O)CC1)C(=O)N[C@@H](CCC(N)=O)C(=O)N[C@@H](CC(C)C)C(=O)N[C@@H](CO)C(=O)N1CCC[C@H]1C(=O)N[C@@H](Cc1ccccc1)C(=O)N[C@@H](CO)C(=O)N[C@@H](CCC(N)=O)C(=O)N[C@@H](CO)C(=O)N[C@@H](Cc1c[nH]c2ccccc12)C(=O)N[C@@H](CCCNC(=N)N)C(N)=O (stereo partly shown) [67Ga-BBBpS_5, metal not drawn] ({NODAGA}-HIQLSPFSQSWR-NH2) has what recorded tissue uptake at 2 min?
2.2

Give the measured tissue uptake at 2 min of CC[C@H](C)[C@H](NC(=O)[C@H](C)NC(=O)CNC(=O)[C@H](CCCCN)NC(=O)[C@H](Cc1ccc(O)cc1)NC(=O)[C@H](CCCCN)NC(=O)CCC(C(=O)O)N1CCN(CC(=O)O)CCN(CC(=O)O)CC1)C(=O)N[C@H](C(=O)NCC(=O)N[C@@H](CC(N)=O)C(=O)N[C@H](C(=O)N[C@@H](CCCCN)C(N)=O)[C@@H](C)CC)[C@@H](C)CC (stereo partly shown) [67Ga-BBBpS_1, metal not drawn] ({NODAGA}-KYKGAIIGNIK-NH2) .
2
